Cited source for all entries: patent US20120028985A1

experiment: Toxicokinetics of formula (II) and methotrexate after individual and concomitant administration to Beagle dogs; type: in vivo; conditions: female, Beagle, dog, plasma, po, 25 mg/kg, Group 5 (+MTX), formula (II) 25 mg/kg, day 1, female Beagle dogs, mean

{"CPD_SMILES": "COc1cccc(-c2ccc(NC(=O)C3=C(C(=O)O)CCC3)c(F)c2)c1", "MEASURE_UNIT": "h", "half-life": 7.6}

###

assay: Toxicokinetics of formula (II) and methotrexate after individual and concomitant administration to Beagle dogs; assay type: in vivo; conditions: female, Beagle, dog, plasma, po, 2.5 mg/kg, Group 3, methotrexate alone 2.5 mg/kg (reduced from 10), week 13, female Beagle dogs, mean

{"COMPOUND": "CN(Cc1cnc2nc(N)nc(N)c2n1)c1ccc(C(=O)N[C@@H](CCC(=O)O)C(=O)O)cc1 [MTX, methotrexate, reference compound]", "Cmax": "500 ng/mL"}

###

test: Toxicokinetics of formula (II) and methotrexate after individual and concomitant administration to Beagle dogs; type: in vivo; conditions: female, Beagle, dog, plasma, po, 10 mg/kg, Group 4 (+MTX), formula (II) 10 mg/kg, week 13, female Beagle dogs, mean
MEASURED_PROPERTY: half-life

{"CPD_SMILES": "COc1cccc(-c2ccc(NC(=O)C3=C(C(=O)O)CCC3)c(F)c2)c1", "MEASURED_PROPERTY": "half-life", "OBSERVED_MEASUREMENT": "26.7 h"}

###

test: Toxicokinetics of formula (II) and methotrexate after individual and concomitant administration to Beagle dogs; assay type: in vivo; settings: female, Beagle, dog, plasma, po, 10 mg/kg, Group 4 (+MTX), formula (II) 10 mg/kg, week 13, female Beagle dogs, mean

{"CPD_SMILES": "COc1cccc(-c2ccc(NC(=O)C3=C(C(=O)O)CCC3)c(F)c2)c1", "Cmax": "40500 ng/mL"}

###

assay: Toxicokinetics of formula (II) and methotrexate after individual and concomitant administration to Beagle dogs; type: in vivo; details: male, Beagle, dog, plasma, po, 25 mg/kg, Group 2, formula (II) 25 mg/kg alone, day 1, male Beagle dogs, mean

{"CPD_SMILES": "COc1cccc(-c2ccc(NC(=O)C3=C(C(=O)O)CCC3)c(F)c2)c1", "MEASURE_UNIT": "h", "half-life": 7.8}

###

assay: Toxicokinetics of formula (II) and methotrexate after individual and concomitant administration to Beagle dogs; assay type: in vivo; conditions: male, Beagle, dog, plasma, po, 2.5 mg/kg, Group 5 (+25SC, in combination with 25 mg/kg formula (II)), methotrexate 2.5 mg/kg (reduced from 10), week 13, male Beagle dogs, mean

{"MOLECULE": "CN(Cc1cnc2nc(N)nc(N)c2n1)c1ccc(C(=O)N[C@@H](CCC(=O)O)C(=O)O)cc1 [MTX, methotrexate, reference compound]", "Cmax": "600 ng/mL"}

###

assay: Toxicokinetics of formula (II) and methotrexate after individual and concomitant administration to Beagle dogs; type: in vivo; details: female, Beagle, dog, plasma, po, 2.5 mg/kg, Group 3, methotrexate alone 2.5 mg/kg (reduced from 10), week 13, female Beagle dogs, mean
MEASURED_PROPERTY: AUC(0-inf)

{"COMPOUND": "CN(Cc1cnc2nc(N)nc(N)c2n1)c1ccc(C(=O)N[C@@H](CCC(=O)O)C(=O)O)cc1 [MTX, methotrexate, reference compound]", "OBSERVED_MEASUREMENT": "2200 ng·h/mL"}

###

experiment: Toxicokinetics of formula (II) and methotrexate after individual and concomitant administration to Beagle dogs; assay type: in vivo; conditions: male, Beagle, dog, plasma, po, 10 mg/kg, Group 4 (+10SC, in combination with 10 mg/kg formula (II)), methotrexate 10 mg/kg, day 1, male Beagle dogs, mean

{"COMPOUND": "CN(Cc1cnc2nc(N)nc(N)c2n1)c1ccc(C(=O)N[C@@H](CCC(=O)O)C(=O)O)cc1 [MTX, methotrexate, reference compound]", "AUC(0-inf) [ng·h/mL]": 6600}

###

test: Toxicokinetics of formula (II) and methotrexate after individual and concomitant administration to Beagle dogs; type: in vivo; settings: male, Beagle, dog, plasma, po, 10 mg/kg, Group 5 (+25SC, in combination with 25 mg/kg formula (II)), methotrexate 10 mg/kg, day 1, male Beagle dogs, mean

{"COMPOUND": "CN(Cc1cnc2nc(N)nc(N)c2n1)c1ccc(C(=O)N[C@@H](CCC(=O)O)C(=O)O)cc1 [MTX, methotrexate, reference compound]", "AUC(0-inf), ng·h/mL": 5900}

###

assay: Toxicokinetics of formula (II) and methotrexate after individual and concomitant administration to Beagle dogs; type: in vivo; conditions: male, Beagle, dog, plasma, po, 2.5 mg/kg, Group 5 (+25SC, in combination with 25 mg/kg formula (II)), methotrexate 2.5 mg/kg (reduced from 10), week 13, male Beagle dogs, mean

{"MOLECULE": "CN(Cc1cnc2nc(N)nc(N)c2n1)c1ccc(C(=O)N[C@@H](CCC(=O)O)C(=O)O)cc1 [MTX, methotrexate, reference compound]", "AUC(0-inf) / ng·h/mL": 2500}

###

assay: Toxicokinetics of formula (II) and methotrexate after individual and concomitant administration to Beagle dogs; assay type: in vivo; conditions: female, Beagle, dog, plasma, po, 10 mg/kg

{"COMPOUND": "COc1cccc(-c2ccc(NC(=O)C3=C(C(=O)O)CCC3)c(F)c2)c1 [Formula (II)]", "AUC(0-t)": "598 µg·h/mL"}

###

assay: Toxicokinetics of formula (II) and methotrexate after individual and concomitant administration to Beagle dogs; assay type: in vivo; conditions: female, Beagle, dog, plasma, po, 25 mg/kg, Group 2, formula (II) 25 mg/kg alone, week 13, female Beagle dogs, mean

{"CPD_SMILES": "COc1cccc(-c2ccc(NC(=O)C3=C(C(=O)O)CCC3)c(F)c2)c1", "MEASURE_UNIT": "µg/mL", "Cmax": 66.6}
